# Protocol description: Toxicity against rat WB-F344 cells assessed as cell viability at 0.5 ppm after 1 hr using trypan blue staining by LDH assay
# Type: cell-based
# Test conditions: read-out: Activity
Readout label: viability at 1 h, 0.5 ppm
Provide a numeric answer, followed by its unit.

// viability at 1 h, 0.5 ppm lookup, molecule = C[C@@H]1[C@H](O)[C@@H](C)/C=C/C=C/C=C/C=C/C=C/C=C/C=C/[C@H](O[C@@H]2O[C@H](C)[C@@H](O)[C@H](N)[C@@H]2O)C[C@@H]2O[C@](O)(C[C@@H](O)C[C@@H](O)[C@H](O)CC[C@@H](O)C[C@@H](O)CC(=O)O[C@H]1C)C[C@H](O)[C@H]2C(=O)O [AMPHOTERICIN B] , result: 100%
